Provenance of the data: the supplement of paper PMC11246515

Assay: total protein half-life in vivo (active degradation + dilution); higher = more stable protein
Conditions: E. coli NCM3722 delta-lon; growth: N-lim chemostat; doubling time 6 h
So I've got a bunch of sequences here, and I need their total protein half-life in vivo values.
The answer is to be given in h; state only the numeric part.

Give reported total protein half-life in vivo value for MYRIVLGKVSTLSAAPLPPGLREQAPQGPRRERWLAGRALLSHTLSPLPEIIYGEQGKPAFAPEMPLWFNLSHSGDDIALLLSDEGEVGCDIEVIRPRANWRWLANAVFSLGEHAEMDAVHPDQQLEMFWRIWTRKEAIVKQRGGSAWQIVSVDSTYHSSLSVSHCQLENLSLAICTPTPFTLTADSVQWIDSVN 3.99

For the sequence MLELNFSQTLGNHCLTINETLPANGITAIFGVSGAGKTSLINAISGLTRPQKGRIVLNGRVLNDAEKGICLTPEKRRVGYVFQDARLFPHYKVRGNLRYGMSKSMVDQFDKLVALLGIEPLLDRLPGSLSGGEKQRVAIGRALLTAPELLLLDEPLASLDIPRKRELLPYLQRLTREINIPMLYVSHSLDEILHLADRVMVLENGQVKAFGALEEVWGSSVMNPWLPKEQQSSILKVTVLEHHPHYAMTALALGDQHLWVNKLDEPLQAALRIRIQASDVSLVLQPPQQTSIRNVLRAKVVNSYDDNGQVEVELEVGGKTLWARISPWARDELAIKPGLWLYAQIKSVSITA , give its measured total protein half-life in vivo value. 5.26

Indicate the recorded total protein half-life in vivo value for this sequence: MKALSKLKAEEGIWMTDVPVPELGHNDLLIKIRKTAICGTDVHIYNWDEWSQKTIPVPMVVGHEYVGEVVGIGQEVKGFKIGDRVSGEGHITCGHCRNCRGGRTHLCRNTIGVGVNRPGCFAEYLVIPAFNAFKIPDNISDDLAAIFDPFGNAVHTALSFDLVGEDVLVSGAGPIGIMAAAVAKHVGARNVVITDVNEYRLELARKMGITRAVNVAKENLNDVMAELGMTEGFDVGLEMSGAPPAFRTMLDTMNHGGRIAMLGIPPSDMSIDWTKVIFKGLFIKGIYGREMFETWYKMAALIQSGLDLSPIITHRFSIDDFQKGFDAMRSGQSGKVILSWD 5.24

Consider the sequence MIALIQRVTRASVTVEGEVTGEIGAGLLVLLGVEKDDDEQKANRLCERVLGYRIFSDAEGKMNLNVQQAGGSVLVVSQFTLAADTERGMRPSFSKGASPDRAEALYDYFVERCRQQEMNTQTGRFAADMQVSLVNDGPVTFWLQV [P0A6M4] and give its recorded total protein half-life in vivo. 4.26

Report total protein half-life in vivo, nothing else, for this sequence: MLEDLRANSWSLRPCCMVLAYRVAHFCSVWRKKNVLNNLWAAPLLVLYRIITECFFGYEIQAAATIGRRFTIHHGYAVVINKNVVAGDDFTIRHGVTIGNRGADNMACPHIGNGVELGANVIILGDITLGNNVTVGAGSVVLDSVPDNALVVGEKARVKVIK [P0ACC9] 7.07

Please indicate total protein half-life in vivo recorded for MGAELVKWVKSHKIDAHIITFVAKMPYIDSIKLLEAGAKGCVWKTSHPAKLNRAIDSISNGYTYFDSVHMDCEKISSRYSSDNQLTNRESEILQLIADGKTNKEIANFLQLSRKTVETHRLNIMKKLDVHSGIELIKTALRMGVCTI 5.01

Quick one: give measured total protein half-life in vivo for MSEGWNIAVLGATGAVGEALLETLAERQFPVGEIYALARNESAGEQLRFGGKTITVQDAAEFDWTQAQLAFFVAGKEATAAWVEEATNSGCLVIDSSGLFALEPDVPLVVPEVNPFVLTDYRNRNVIAVPDSLTSQLLAALKPLIDQGGLSRISVTSLISASAQGKKAVDALAGQSAKLLNGIPIDEEDFFGRQLAFNMLPLLPDSEGSVREERRIVDEVRKILQDEGLMISASVVQAPVFYGHAQMVNFEALRPLAAEEARDAFVQGEDIVLSEENEFPTQVGDASGTPHLSVGCVRNDYGMPEQVQFWSVADNVRFGGALMAVKIAEKLVQEYLY 4.9

Please indicate total protein half-life in vivo recorded for MRKLTALFVASTLALGAANLAHAADTTTAAPADAKPMMHHKGKFGPHQDMMFKDLNLTDAQKQQIREIMKGQRDQMKRPPLEERRAMHDIIASDTFDKVKAEAQIAKMEEQRKANMLAHMETQNKIYNILTPEQKKQFNANFEKRLTERPAAKGKMPATAE 4.86

State, in one line, measured total protein half-life in vivo of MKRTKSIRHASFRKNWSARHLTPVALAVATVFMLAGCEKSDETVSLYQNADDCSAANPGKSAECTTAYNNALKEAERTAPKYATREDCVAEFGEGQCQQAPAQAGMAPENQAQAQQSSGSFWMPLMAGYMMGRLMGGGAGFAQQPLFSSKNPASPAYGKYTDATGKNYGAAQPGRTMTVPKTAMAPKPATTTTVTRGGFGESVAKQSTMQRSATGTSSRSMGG [P0ADT2] 3.69

For the sequence MSLINTKIKPFKNQAFKNGEFIEITEKDTEGRWSVFFFYPADFTFVCPTELGDVADHYEELQKLGVDVYAVSTDTHFTHKAWHSSSETIAKIKYAMIGDPTGALTRNFDNMREDEGLADRATFVVDPQGIIQAIEVTAEGIGRDASDLLRKIKAAQYVASHPGEVCPAKWKEGEATLAPSLDLVGKI [P0AE08] , give its reported total protein half-life in vivo. 2.26

# return recorded total protein half-life in vivo for input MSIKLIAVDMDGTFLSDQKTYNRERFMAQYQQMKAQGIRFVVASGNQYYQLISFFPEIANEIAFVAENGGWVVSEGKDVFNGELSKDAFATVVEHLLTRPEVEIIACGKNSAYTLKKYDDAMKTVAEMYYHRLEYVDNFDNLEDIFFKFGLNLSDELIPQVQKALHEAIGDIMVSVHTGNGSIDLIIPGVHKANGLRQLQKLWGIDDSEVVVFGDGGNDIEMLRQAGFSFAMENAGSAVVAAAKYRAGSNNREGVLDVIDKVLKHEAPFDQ 2.53

Please indicate total protein half-life in vivo recorded for MIEIESRELADIPVLHAYPVGQKDTPLPCVIFYHGFTSSSLVYSYFAVALAQAGLRVIMPDAPDHGSRFSGDAARRLNQFWQILLQSMQEFTTLRAAIAEENWLLDDRLAVGGASMGAMTALGITARHPTVRCTASMMGSGYFTSLARSLFPPLIPETAAQQNEFNNIVAPLAEWEATNHLEQLSDRPLLLWHGLDDDVVPADESLRLQQALSETGRDKLLTCSWQPGVRHRITPEALDAAVTFFRQHL 4.32
